Target: PI3Kβ (Homo sapiens, UniProt P42338)
Construct: His6 (N); made in house; host or cells: S. frugiperda 9 (Sf9) insect cells
Sequence (P42338 109-1070): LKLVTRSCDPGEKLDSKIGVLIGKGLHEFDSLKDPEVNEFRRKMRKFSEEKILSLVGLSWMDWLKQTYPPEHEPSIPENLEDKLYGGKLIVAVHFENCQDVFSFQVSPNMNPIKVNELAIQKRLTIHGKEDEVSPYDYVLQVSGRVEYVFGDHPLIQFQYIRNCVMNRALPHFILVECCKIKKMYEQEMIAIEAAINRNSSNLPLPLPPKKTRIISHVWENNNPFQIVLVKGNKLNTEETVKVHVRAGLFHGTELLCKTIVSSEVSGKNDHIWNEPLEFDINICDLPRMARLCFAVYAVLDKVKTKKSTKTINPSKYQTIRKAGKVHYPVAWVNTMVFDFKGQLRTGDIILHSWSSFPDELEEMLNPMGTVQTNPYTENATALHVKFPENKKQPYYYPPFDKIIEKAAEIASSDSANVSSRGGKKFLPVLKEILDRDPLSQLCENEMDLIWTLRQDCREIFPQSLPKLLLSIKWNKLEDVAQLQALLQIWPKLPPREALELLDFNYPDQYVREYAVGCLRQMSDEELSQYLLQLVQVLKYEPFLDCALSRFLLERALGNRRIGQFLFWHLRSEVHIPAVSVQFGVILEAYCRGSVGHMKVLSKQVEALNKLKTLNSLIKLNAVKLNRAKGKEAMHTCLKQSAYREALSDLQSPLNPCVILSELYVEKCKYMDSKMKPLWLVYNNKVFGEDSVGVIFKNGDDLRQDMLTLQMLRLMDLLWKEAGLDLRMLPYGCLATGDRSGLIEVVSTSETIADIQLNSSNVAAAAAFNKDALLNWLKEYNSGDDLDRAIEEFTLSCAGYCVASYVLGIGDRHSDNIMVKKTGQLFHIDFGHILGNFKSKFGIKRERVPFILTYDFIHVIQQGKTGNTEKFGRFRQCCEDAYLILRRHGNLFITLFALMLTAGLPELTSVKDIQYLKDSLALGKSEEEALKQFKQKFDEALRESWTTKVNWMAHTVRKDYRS
Assay: Isozyme selectivity test: kinase assay of PI3Kβ (p110β assay)
Format: biochemical
Conditions: recombinant truncated p110β, 7.5 ng protein/well
pIC50: −log10 of the molar value.
Below, each entry is listed with its recorded pIC50.

Use the examples below as a reference point.
* COc1c(OCCCN2CCOCC2)ccc2c1N=C(NC(=O)c1ccc(OCC(F)(F)F)nc1)N1CCN=C21 | 7.00 to 8.00
* COc1c(OCCCN2CCOCC2)ccc2c1N=C(NC(=O)c1ccc(NC3CCCC3)nc1)N1CCN=C21 | 7.00 to 8.00
* COc1c(OCCCN2CCOCC2)ccc2c1N=C(NC(=O)c1ccnc(N)n1)N1CCN=C21 | 7.00 to 8.00

// field: pIC50; key: CCN1CCOC(COc2ccc3c(c2OC)N=C(NC(=O)c2cccnc2)N2CCN=C32)C1 (stereo not shown) ; value = 7.00 to 8.00

###

Target: PI3Kβ (Homo sapiens)
Construct: His6 (N)
Assay: Isozyme selectivity test: kinase assay of PI3Kβ (p110β assay)
Conditions: recombinant truncated p110β, 7.5 ng protein/well
Excerpt: [Isozyme Selectivity Test in PI3K] Determination of IC50 Values of Compounds in Kinase Assays of PI3Kβ and PI3Kγ
Counter-ions that a name gives are not always drawn.
Below, each entry is listed with its recorded IC50.

// field: IC50; key: COCCN1CCOC(CCOc2ccc3c(c2OC)N=C(NC(=O)c2cccnc2)N2CCN=C32)C1 (stereo not drawn) [Example 20] ; value = < 10 nM

// field: IC50; key: COc1c(OCCC2CN(CC3CCC3)CCO2)ccc2c1N=C(NC(=O)c1cccnc1)N1CCN=C21 (stereo not drawn) [Example 19] ; value = < 10 nM

// field: IC50; key: COc1c(OCCCN2C[C@@H](C)O[C@@H](C)C2)ccc2c1N=C(NC(=O)c1ccc(NC(C)=O)nc1)N1CCN=C21 [Example 29] ; value = < 10 nM

// field: IC50; key: COc1c(OCCCN(C)C)ccc2c1N=C(NC(=O)c1ccc[n+]([O-])c1)N1CCN=C21 [Example 12] ; value = > 100 nM

// field: IC50; key: COc1c(OCCCN2CCOCC2)ccc2c1N=C(NC(=O)c1cnc(N3CCOCC3)nc1)N1CCN=C21 [Example 49] ; value = 10 to 100 nM

// field: IC50; key: COc1c(OCCCN2CCOCC2)ccc2c1N=C(NC(=O)c1ccc(NC(=O)C(C)(C)C)nc1)N1CCN=C21 [Example 59] ; value = > 100 nM

// field: IC50; key: COc1c(OCCCN2CCOCC2)ccc2c1N=C(NC(=O)c1ccc(N3CCNCC3)nc1)N1CCN=C21 [Example 50, hydrochloride] ; value = 10 to 100 nM

###

Target: PI3Kβ (Homo sapiens)
Construct: His6 (N)
Assay: Isozyme selectivity test: kinase assay of PI3Kβ (p110β assay)
Conditions: recombinant truncated p110β, 7.5 ng protein/well
pIC50: −log10 of the molar value.
Below, each entry is listed with its recorded pIC50.

- COc1c(OCCCN2CCOCC2)ccc2c1N=C(NC(=O)c1ccc(NCc3ccc(F)cc3)nc1)N1CCN=C21 [Example 53]: 7.00 to 8.00
- COCCCNc1ncc(C(=O)NC2=Nc3c(ccc(OCCCN4CCOCC4)c3OC)C3=NCCN23)cn1 [Example 41]: 7.00 to 8.00
- COc1c(OCCCN2C[C@@H](C)O[C@@H](C)C2)ccc2c1N=C(NC(=O)c1ccc(C)nc1)N1CCN=C21 [Example 28]: > 8.00
- COc1c(OCCCN2CCOCC2)ccc2c1N=C(NC(=O)c1cnc(N3CCN(C)CC3)nc1)N1CCN=C21 [Example 48]: < 7.00
- COc1c(OCCCN2CCOCC2)ccc2c1N=C(NC(=O)c1ccncn1)N1CCN=C21 [Example 24]: < 7.00
- COc1c(OCCCN2CCOC[C@@H]2C)ccc2c1N=C(NC(=O)c1cccnc1)N1CCN=C21 [Example 17]: 7.00 to 8.00

Please turn your attention to the following entry.
// field: pIC50; key: COc1c(OCCCN2CCOCC2)ccc2c1N=C(NC(=O)c1ccc(-n3cccc3)nc1)N1CCN=C21 [Example 56] ; value = 7.00 to 8.00
